Test system: Type I spiral ganglion neurons
procedure details: Type I spiral ganglion neuron neurite outgrowth with GSIs
Assay type: cell-based, CD-1 mice
measurement parameters: 24-48 h, 0.1% DMSO
Method: Mouse spiral ganglion neurons (SGN) were harvested from CD-1 mice (postnatal day 3 to 5), dissociated and cultured on collagen I in serum free media. Cells were treated for 24-48 h with test compound in 0.1% DMSO then immunostained with the neurite marker, Tuj1 and imaged. Neurite length was quantified using ImageJ software (developed by NIH and available publicly). Only Tuj1^+ cells with clear bipolar morphology characteristic of Type I SGNs were quantified. […]
readout type: lengths of Type I SGN neurites

>>> df
                                   compound               reading
0  CC(C)(C(=O)NCC(F)(F)C(F)(F)F)C(=O)N[C@@H]1C(=O)Nc2ccccc2-c2ccccc21 [RO4929097, reference compound]  significant increase
1  C[C@H](OC(=O)NCC(F)(F)C(F)(F)F)C(=O)N[C@@H]1C(=O)Nc2ccccc2-c2ccccc21  significant increase
2  CN1C(=O)[C@@H](NC(=O)[C@](C)(F)C(=O)NCC(F)(F)C(F)(F)F)c2ccccc2-c2ccccc21  significant increase
